The measured values listed here are drawn from patent US9920069B2.

Test: Pharmacokinetic assessment, serum by HPLC
Type: in vivo, C57BL/6 mice
Conditions: 50 mg kg^−1 oral dose, mouse serum; read-out: Cmax / peak serum concentration
assay-endpoint: Cmax
Be sure to follow the number with its unit.

- compound: "CCc1cc(=O)n2c3c(c4c(cc13)c(C)cc(=O)n4C)OC2 [DNM-3]"
  Cmax: "4.3 µM"

Moving on to the next compound.
## Task Fill in the blank: the reported Cmax of CCn1c(=O)cc(C)c2cc3c(C)cc(=O)n4c3c(c21)OC4 [DNM-2] is ____.
## Result 42.6 µM

###

Tested on: MRSA clinical isolate SAU.494
Assay: microbe, parasite or virus in culture
Assay type: cell-based, S. aureus
Settings: Staphylococcus aureus, read-out: MIC
assay-endpoint: MIC (µg/mL)
One number for each entry, in µg/mL.

- smiles-record: "CO[C@@H]1[C@@H](OC(N)=O)[C@@H](O)[C@H](Oc2ccc3c(O)c(NC(=O)c4ccc(O)c(CC=C(C)C)c4)c(=O)oc3c2C)OC1(C)C"
  assay-result: 0.125
- smiles-record: "CCn1c(=O)cc(C)c2cc3c(C)cc(=O)n4c3c(c21)OC4"
  assay-result: 0.125
- smiles-record: "Cc1cc(=O)n(C)c2c3c4c(cc12)c(C)cc(=O)n4CO3"
  assay-result: 0.063

## Task Fill in the blank: the reported MIC of CCCn1c(=O)cc(C)c2cc3c(C)cc(=O)n4c3c(c21)OC4 is ____.
## Result 0.25
